Measured values drawn from patent US20230310631A1 for this set.

Biological target: human glucagon receptor (human, UniProt P47871 26-477)
Sequence (P47871 26-477): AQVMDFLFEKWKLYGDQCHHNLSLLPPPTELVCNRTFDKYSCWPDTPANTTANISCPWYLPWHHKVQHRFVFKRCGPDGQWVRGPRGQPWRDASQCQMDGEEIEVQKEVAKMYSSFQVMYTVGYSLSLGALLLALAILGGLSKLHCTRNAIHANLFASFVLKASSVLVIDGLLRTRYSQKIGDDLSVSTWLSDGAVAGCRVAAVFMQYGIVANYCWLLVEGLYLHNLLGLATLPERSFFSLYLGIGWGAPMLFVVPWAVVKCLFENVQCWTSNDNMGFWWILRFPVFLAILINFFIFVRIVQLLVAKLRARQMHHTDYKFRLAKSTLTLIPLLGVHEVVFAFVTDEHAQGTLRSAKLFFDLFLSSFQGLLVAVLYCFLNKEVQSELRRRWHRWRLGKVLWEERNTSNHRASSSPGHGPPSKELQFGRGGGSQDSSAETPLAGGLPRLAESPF
Assay: cell-based or functional assay
Bridge positions count the residues as written; N and C are the ends. Square brackets hold non-standard residues; d marks the D form. Ends that are not written are not given here. Aib = CC(C)(N)C(=O)O
In vitro Activity (relative activity to SEQ ID NO: 1, %); cAMP assay, from EC50 values by entry
Dear colleague, please return just the value in %, with no unit written.

The following binders have reported results that may help.
Y[Aib]QGTFTSDYSKYLDECRAKEFVQWLMNT (lactam 16-20) [glucagon derivative of SEQ ID NO: 20] ... 300
Y[Aib]QGTFTSDYSKCLDERRAKDFVQWLMNT (lactam 16-20) [glucagon derivative of SEQ ID NO: 29] ... 61.3
Y[Aib]QGTFCSDYSKYLDERRAKEFVQWLMNT (lactam 16-20) [glucagon derivative of SEQ ID NO: 38] ... 167
Y[Aib]QGTFCSDYSKYLDERRAKDFVQWLMNT (lactam 16-20) [glucagon derivative of SEQ ID NO: 41] ... 45.2

Just so you know, measured In vitro Activity (relative activity to SEQ ID NO: 1, %); cAMP assay, from EC50 for Y[Aib]QGTFTSDYSKYLDERRAKEFVQWLMNTC (lactam 16-20) [glucagon derivative of SEQ ID NO: 37] came out at 226

Please fill in: In vitro Activity (relative activity to SEQ ID NO: 1, %); cAMP assay, from EC50 reported for Y[Aib]QGTFTSDYSKYLDEKRAKEFVQWLMNTC (lactam 16-20) [glucagon derivative of SEQ ID NO: 12] = 56.3

For Y[Aib]QGTFTSDYSKYLDEKRCKEFVQWLMNT (lactam 16-20) [glucagon derivative of SEQ ID NO: 22] the binder record lists In vitro Activity (relative activity to SEQ ID NO: 1, %); cAMP assay, from EC50 as 148
